Assay Details: Ratio of drug uptake in brain to plasma of mouse at 30 mg/kg, po
Assay type: ADME, organism-based
Parameters: dose 30 mg/kg, route oral
Test Conditions: read-out: BBB
Experimental Endpoint: Kp

Quick one: Kp for "CCCN(CCC)c1nc2c(c(-c3c(C)cc(C)cc3C)cn2C)c(=O)n1C" ? 0.42

---

Measured Target: UniProt:P34998
Assay Details: Displacement of ovine [125I]CRF from human CRF1 receptor expressed in CHO cells
So I've got a bunch of molecules here, and I need their pIC50 values.
The value called pIC50 is obtained by taking minus log10 of the concentration in mol/L.

What value of pIC50 has been reported for the following molecule? "Cc1cc(C)c(-c2cn(C)c3nc(N(CC4CC4)CC4CC4)n(C)c(=O)c23)c(C)c1" 6.85

Same question, "CCN(CC)c1nc2c(c(-c3c(C)cc(C)cc3C)cn2C)c(=O)n1C" this time 5.11

What do you have for "CCCN(CCC)c1nc2c(c(-c3ccc(C)cc3C)cn2C)c(=O)n1C" ? 5.80

Param item: "CCCN(CCC)c1nc2c(c(-c3ccc(OC)cc3OC)cn2C)c(=O)n1C" 5.52

Then "CCCN(CCC)c1nc2c(c(-c3c(OC)cc(OC)cc3OC)cn2C)c(=O)n1C" ? 5.51

---

Measured Target: Corticotropin-releasing factor receptor 1 (Homo sapiens, UniProt P34998)
Assay Details: Displacement of ovine [125I]CRF from human CRF1 receptor expressed in CHO cells
Experimental Endpoint: pIC50
Recall that pIC50 is obtained by taking minus log10 of the concentration measured in molar.

Fill in the blank: the reported pIC50 of "CCCN(CCC)c1nc2c(c(-c3ccc(C)cc3C)c(C)n2C)c(=O)n1C" is ____. 5.48

And "CCCN(CCC)c1nc2c(c(-c3c(C)cc(C)cc3C)c(C)n2C)c(=O)n1C" ? 5.96

Check "CCC(CC)Oc1cc(C)nc(Oc2c(C)cc(C)cc2C)c1C" too. 7.04

---

Measured Target: Corticotropin-releasing factor receptor 1 (Homo sapiens, UniProt P34998)
Sequence (P34998 whole entry): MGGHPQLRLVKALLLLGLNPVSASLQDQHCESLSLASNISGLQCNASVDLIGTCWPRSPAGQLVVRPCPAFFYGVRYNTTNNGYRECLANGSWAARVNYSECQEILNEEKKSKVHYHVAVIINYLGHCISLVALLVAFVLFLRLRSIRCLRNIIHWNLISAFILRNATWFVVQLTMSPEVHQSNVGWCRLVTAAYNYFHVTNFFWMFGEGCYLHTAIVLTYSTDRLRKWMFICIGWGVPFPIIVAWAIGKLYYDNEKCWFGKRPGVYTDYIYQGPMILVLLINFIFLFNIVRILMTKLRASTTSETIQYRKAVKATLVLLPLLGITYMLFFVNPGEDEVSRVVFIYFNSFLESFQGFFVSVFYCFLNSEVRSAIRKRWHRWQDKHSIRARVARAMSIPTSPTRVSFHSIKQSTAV
Assay Details: Displacement of ovine [125I]CRF from human CRF1 receptor expressed in CHO cells
pIC50: −log10 of the molar value.
Record Criterion met whenever pIC50 is at 6 or higher; record Criterion not met when lower.

Is it the case that "CCCN(CCC)c1nc2c(c(-c3ccc(C(F)(F)F)cc3C(F)(F)F)cn2C)c(=O)n1C" has pIC50 reaching or exceeding 6? Criterion not met

And the next one, "Cc1cc(C)c(-c2cn(C)c3nc(N4CCCCC4)n(C)c(=O)c23)c(C)c1" ? Criterion not met

Would you kindly repeat that for "CCCCN(CC)c1nc(C)nc2c1c(C)cn2-c1c(C)cc(C)cc1C" ? Criterion met

"CCCN(CCC)c1nc2c(c(-c3c(C)cc(C)cc3C)cn2C)c(=O)n1C" ? Criterion met
